Experimental Protocol: Antiinflammatory activity in human neutrophils assessed as inhibition of fMet-Leu-Phe/Cytochalasin B-induced elastase release at 10 ug/mL
Format: functional, cell-based
Condition Summary: Neutrophil
Measurement Kind: inhibition at 10 µg/mL (%)
# value in %; strip the unit string

[[record]]
compound = "CC(=O)c1c(OC/C=C(\\C)CCC=C(C)C)cc(O)c(C(=O)O)c1O"
measurement_kind = "inhibition at 10 µg/mL"
reading = 46.1


# inhibition at 10 µg/mL (compound: CC(=O)c1c(O)cc(OC/C=C(\C)CCC=C(C)C)c2c1OC(C)(CCC=C(C)C)C=C2 (stereo not given) ) is 26.6

GET /value?item= CC(=O)c1c(O)cc(OC/C=C(\C)CCC=C(C)C)c2c1OC(C)(C)[C@H](O)C2 &field=inhibition at 10 µg/mL returns 28.7

Data point: CC(=O)c1c(O)cc(OC/C=C(\C)CCC=C(C)C)c2c1OC(C)(C)C=C2 ; inhibition at 10 µg/mL = 27.4

Query CC[C@H](CC[C@@H](C)[C@H]1CC[C@H]2[C@@H]3C(=O)C=C4C[C@@H](O)CC[C@]4(C)[C@H]3CC[C@]12C)C(C)C yields inhibition at 10 µg/mL of 7.48

* * *

Experimental Protocol: Antiinflammatory activity in human neutrophils assessed as inhibition of fMet-Leu-Phe/Cytochalasin B-induced superoxide anion generation at 10 ug/mL
Assay type: functional
Condition Summary: Neutrophil
Measurement Kind: inhibition at 10 µg/mL (%)
Use % as the unit, but write only the number.

Below, 3 compounds whose answers are already recorded.
[[record]]
compound = "CC(=O)c1c(O)cc(OC/C=C(\\C)CCC=C(C)C)c2c1OC(C)(C)C=C2"
measurement_kind = "inhibition at 10 µg/mL"
reading = 21.4

[[record]]
compound = "CC(=O)c1c(O)cc(OC/C=C(\\C)CCC=C(C)C)c2c1OC(C)(C)[C@H](O)C2"
measurement_kind = "inhibition at 10 µg/mL"
reading = 30.6

[[record]]
compound = "CC[C@H](CC[C@@H](C)[C@H]1CC[C@H]2[C@@H]3C(=O)C=C4C[C@@H](O)CC[C@]4(C)[C@H]3CC[C@]12C)C(C)C"
measurement_kind = "inhibition at 10 µg/mL"
reading = 22.6


Entry CC(=O)c1c(O)cc(OC/C=C(\C)CCC=C(C)C)c2c1OC(C)(CCC=C(C)C)C=C2 (centres undefined) — recorded inhibition at 10 µg/mL = 23.2

* * *

Experimental Protocol: Antiinflammatory activity in human neutrophils assessed as inhibition of fMet-Leu-Phe/Cytochalasin B-induced elastase release at 10 ug/mL
Format: functional, cell-based
Condition Summary: Neutrophil
Measurement Kind: pIC50
Scale: pIC50 equals -log10([C]), with [C] in mol/L.

pIC50 recorded for this compound, O=S(=O)(F)Cc1ccccc1 [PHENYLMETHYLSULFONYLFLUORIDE] , is 4.45

* * *

Experimental Protocol: Antiinflammatory activity in human neutrophils assessed as inhibition of fMet-Leu-Phe/Cytochalasin B-induced superoxide anion generation
Format: functional, cell-based
Condition Summary: Neutrophil
Measurement Kind: IC50 (µg/mL)
Enter your answer as a number in µg/mL; do not include the unit.

[[record]]
smiles_repr = "COc1cc(O)c2c(=O)c(OC)c(-c3ccc(O)cc3)oc2c1"
reading = 1.2

[[record]]
smiles_repr = "CC(=O)c1c(OC/C=C(\\C)CCC=C(C)C)cc(O)c(C(=O)O)c1O"
reading = 8.02

[[record]]
smiles_repr = "CC(C)=CCC/C(C)=C/COc1cc(O)cc(O)c1C(=O)CO"
reading = 0.73

[[record]]
smiles_repr = "COc1cc(O)c2c(=O)c(OC)c(-c3ccc(OC)c(OC)c3)oc2c1"
reading = 1.43

[[record]]
smiles_repr = "CC(C)=CCC/C(C)=C/COc1cc(O)c(C(=O)CO)c(O)c1"
reading = 3.75

[[record]]
smiles_repr = "COc1cc(O)c2c(=O)c(OC)c(-c3ccc(O)c(OC)c3)oc2c1"
reading = 1


# compound CC(=O)c1c(O)cc(OC/C=C(\C)CCC=C(C)C)c(C(=O)O)c1O ; its IC50 = 6.62

Entry source: ChEMBL document CHEMBL1143073
